// provenance: patent US20250121013A1

Recorded MIC, one value per entry.
Tested on: ART24
method.description: Antibiotic susceptibility of ART24 lots and cell banks, MIC following EFSA testing recommendations (Table 3)
Format: cell-based, Bacillus amyloliquefaciens
condition.label: Bacillus amyloliquefaciens; ART24 source: lyophilized lot CO-33-12A2; read-out: MIC, CO-33-12A2

Example entries and their recorded answers appear below.
molecule | tested.target | metric.name | measured.value
CC1(C)S[C@@H]2[C@H](NC(=O)[C@H](N)c3ccccc3)C(=O)N2[C@H]1C(=O)O [Ampicillin] | ART24 | MIC | ≤ 0.03 µg/mL
CO[C@H]1/C=C/O[C@@]2(C)Oc3c(C)c(O)c4c(O)c(c(/C=N/N5CCN(C)CC5)c(O)c4c3C2=O)NC(=O)/C(C)=C\C=C\[C@H](C)[C@H](O)[C@@H](C)[C@@H](O)[C@@H](C)[C@H](OC(C)=O)[C@@H]1C [Rifampicin] | ART24 | MIC | 0.25 µg/mL

Data request: Could you please provide reported MIC for CCC[C@@H]1C[C@@H](C(=O)N[C@@H]([C@H]2O[C@H](SC)[C@H](O)[C@@H](O)[C@H]2O)[C@H](C)Cl)N(C)C1 [Clindamycin] ? Thanks!
Data returned: 0.25 µg/mL

Data request: Give reported MIC value for COc1cc(Cc2cnc(N)nc2N)cc(OC)c1OC [Trimethoprim]
Data returned: ≤ 0.25 µg/mL

Data request: Give the value of MIC reported for the following: O=C(O)c1cn(C2CC2)c2cc(N3CCNCC3)c(F)cc2c1=O [Ciprofloxacin]
Data returned: ≤ 0.03 µg/mL

Data request: Read the entry CN(C)[C@@H]1C(O)=C(C(N)=O)C(=O)[C@@]2(O)C(O)=C3C(=O)c4c(O)cccc4[C@@](C)(O)[C@H]3C[C@@H]12 [Tetracycline] and write its reported MIC.
Data returned: 2 µg/mL

Data request: Read off the recorded MIC for CC(=O)NC[C@H]1CN(c2ccc(N3CCOCC3)c(F)c2)C(=O)O1 [Linezolid]
Data returned: 0.5 µg/mL
